pIC50: −log10 of the molar value.
The entries that follow carry pIC50 values tested on Protein kinase C alpha type (Homo sapiens), drawn from several published reports.

Q) I would be grateful if you could share the reported pIC50 for CC1(C)CC(CNc2nc(Nc3ccc4c(c3)-n3nnnc3CO4)ncc2F)C(C)(C)N1 (stereo not drawn) .
A) > 6.60

Q) I would be grateful if you could share the reported pIC50 for `CN1CCCNc2c(c(=O)c2=O)NCCCN(C)CCCNc2c(c(=O)c2=O)NCCCN(C)CCCNc2c(c(=O)c2=O)NCCCN(C)CCCNc2c(c(=O)c2=O)NCCCN(C)CCCNc2c(c(=O)c2=O)NCCC1` .
A) 5.64

Q) I would be grateful if you could share the reported pIC50 for `CN1C(C)(C)CC(Nc2nc(Nc3ccc4c(c3)-n3nnnc3C(C)(C)O4)ncc2F)CC1(C)C` .
A) > 6.60

Q) I would be grateful if you could share the reported pIC50 for `CN1C(C)(C)CC(Nc2nc(Nc3ccc4c(c3)-n3nnnc3CO4)ncc2F)CC1(C)C` .
A) > 6.60

Q) I would be grateful if you could share the reported pIC50 for `O=C(NCCCN1CCCC1)c1ccc(/C=C2\Sc3ccccc3N(Cc3ccccc3F)C2=O)cc1` .
A) < 4.70

Q) I would be grateful if you could share the reported pIC50 for `CC1(C)CC(Nc2nc(Nc3ccc4c(c3)-n3nnnc3C(C)(C)O4)ncc2F)CC(C)(C)N1` .
A) > 6.60

Q) I would be grateful if you could share the reported pIC50 for CN1C(C)(C)CC(CNc2nc(Nc3ccc4c(c3)-n3nnnc3CO4)ncc2F)C1(C)C (stereo not drawn) .
A) > 6.60

Q) I would be grateful if you could share the reported pIC50 for `CC1(C)CC(Nc2nc(Nc3ccc4c(c3)-n3nnnc3C3(CCC3)O4)ncc2F)CC(C)(C)N1` .
A) > 6.60

Q) I would be grateful if you could share the reported pIC50 for CC1Oc2ccc(Nc3ncc(F)c(NC4CC(C)(C)NC(C)(C)C4)n3)cc2-n2nnnc21 (stereo not drawn) .
A) > 6.60
